- TGT: G-protein coupled receptor 68 (Homo sapiens) (UniProt Q15743)
- Sequence (Q15743 whole entry): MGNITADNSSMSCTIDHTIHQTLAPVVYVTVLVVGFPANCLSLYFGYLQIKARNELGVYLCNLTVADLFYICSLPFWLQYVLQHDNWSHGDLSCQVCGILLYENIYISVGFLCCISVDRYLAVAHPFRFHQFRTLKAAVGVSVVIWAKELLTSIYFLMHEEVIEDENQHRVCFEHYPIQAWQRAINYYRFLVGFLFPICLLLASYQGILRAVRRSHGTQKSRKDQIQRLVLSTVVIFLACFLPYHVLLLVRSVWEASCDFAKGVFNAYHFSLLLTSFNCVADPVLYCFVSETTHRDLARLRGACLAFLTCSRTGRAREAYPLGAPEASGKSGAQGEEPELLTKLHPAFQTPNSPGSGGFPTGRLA
- EXPERIMENTAL DETAILS: Positive allosteric modulation of human GPR68 expressed in HEK293T cells co-expressing Gs assessed as stimulation of proton-mediated cAMP production by measuring allosteric affinity cooperativity in HBSS buffer containing pH 6.8 to 8.2 HEPES/pH 8.3 to 8.6 TAPS measured after 20 to 30 mins in presence of PDE inhibitor Ro 20-1724 by luciferase-glo reporter gene assay
- Type: functional, cell-based
Calls of active or inactive are those of the source. The calls are words filed in the database; no cut-off is given here.
ASSAY METRIC: log(activity)

Here is how some compounds turned out for log(activity).
{"columns": ["COMPOUND", "log(activity)"],
 "data": [
  ["Nc1nc(NCc2cccc(F)c2)nc(-c2ccccc2CO)n1", 0.7],
  ["Nc1nc(NCCCc2ccc(Oc3ccccc3)cc2)nc(-c2ccccc2CO)n1", 1.19],
  ["Nc1nc(NCc2ccc(F)cc2)nc(-c2c(F)cccc2CO)n1", 1.01],
  ["Nc1nc(NCCCc2ccccc2)nc(-c2c(F)cccc2CO)n1", 1.19],
  ["Nc1nc(NCCc2ccccc2)nc(-c2cc(Cl)ccc2CO)n1", 1.09]
]}

Ask: Quick one: log(activity) of `Nc1nc(NCc2cccc(C(F)(F)F)c2)nc(-c2ccccc2CO)n1` ?
Result: 0.64

Ask: Entry `CC(=O)c1ccccc1-c1nc(N)nc(NCc2ccccc2)n1` has what log(activity)?
Result: inactive

Ask: For `Nc1cc(-c2ccccc2CO)nc(NCc2ccccc2)n1` , what is its reported log(activity)?
Result: inactive

Ask: Given the entry `Nc1nc(NCCCCc2ccccc2)nc(-c2cc(Cl)ccc2CO)n1` , report its measured log(activity).
Result: 1.09

Ask: Which value of log(activity) has been reported for `Nc1nc(NCc2ccccc2)nc(-c2ccccc2CO)n1` in the records?
Result: 0.6
